- compound: "Cc1nc2nccc(Cl)c2cc1Br"
  melting point: "160 to 164 °C"
- compound: "CCOc1cccc(N(C(=O)CCC(=O)O)c2cc(C(C)(C)C)c(O)c(C(C)(C)C)c2)c1"
  melting point: "128 to 130 °C"
- compound: "C=C(C)OC(=O)N1c2ccc(C)cc2NC(=O)C1(C)C"
  melting point: "185 °C"
- compound: "CCOC(=O)C1=C(C)Nc2nc(N3CCOCC3)nc(N3CCOCC3)c2C1c1ccccc1C (stereo not given)"
  melting point: "234 °C"
- compound: "CCCOc1ccc(S(C)(=O)=O)cc1C(=O)Nc1c(CC)n[nH]c1C(N)=O"
  melting point: "209 to 210 °C"
- compound: "N=C(Nc1ccc(CNCc2ccccc2)cc1)c1cccs1"
  melting point: "73 to 74 °C"
- compound: "Cc1cc(-c2cnn3c(C(F)(F)F)cc(-c4cccc(C(F)(F)F)c4)nc23)ccn1"
  melting point: "232 °C"
- compound: "COc1cc(OC)nc(-c2c(C)[nH]c3ccccc23)n1"
  melting point: "182 to 184 °C"
- compound: "C=CCN(CC=C)c1nc(N)n2oc(=O)nc2n1"
  melting point: "211 to 213 °C"
- compound: "Cc1cccn2cc(CCl)nc12"
  melting point: "115 to 117 °C"
